System: Jcl:SD strain male rats
assay-summary: Study of pungency (eye wiping test)
Type: in vivo
experimental-conditions: concentration 100 μg/ml, a drop into the eye of rats, counted for 3 minutes; average ± S.E.M.
Kindly state Number of wiping movements for each of the entries shown.
Just the number, please, no unit attached.

Lab note: measured Number of wiping movements of `COc1cc(CC(=O)Nc2cccc(-c3ccc(Cl)cc3)c2)ccc1OCCN` was 3.8

Lab note: measured Number of wiping movements of COc1cc(CC(=O)Nc2cccc(C3CCC(C(C)(C)C)CC3)c2)ccc1O (stereo not drawn) was 5.0

Lab note: measured Number of wiping movements of `COc1cc(CC(=O)Nc2cccc(-c3ccc4c(c3)OCO4)c2)ccc1OCCN` was 5.4

Lab note: measured Number of wiping movements of `COc1cc(CC(=O)Nc2cccc(C3CCCCC3)c2)ccc1OCCN` was 7.4

Lab note: measured Number of wiping movements of `COc1cc(CC(=O)Nc2cccc(-c3cccc(Oc4ccccc4)c3)c2)ccc1OCCN` was 4.0

Lab note: measured Number of wiping movements of `COc1cc(CC(=O)Nc2cccc(-c3cccc(F)c3)c2)ccc1OCCN` was 5.6

---

Test system: Jcl:SD strain male rats
assay-summary: Study of pungency (eye wiping test)
Type: in vivo
experimental-conditions: concentration 500 μg/ml, a drop into the eye of rats, counted for 3 minutes; average ± S.E.M.
result-type: Number of wiping movements
Just the number, please, no unit attached.

Lab note: measured Number of wiping movements of COc1cc(CC(=O)Nc2cccc(C3CCC(C(C)(C)C)CC3)c2)ccc1O (stereo not drawn) was 10.6

Lab note: measured Number of wiping movements of `COc1cc(CC(=O)Nc2cccc(C3CCCCC3)c2)ccc1OCCN` was 15.6

Lab note: measured Number of wiping movements of `COc1cc(CC(=O)Nc2cccc(-c3cccc(Oc4ccccc4)c3)c2)ccc1OCCN` was 12.2

Lab note: measured Number of wiping movements of `COc1cc(CC(=O)Nc2cccc(-c3ccc(Cl)cc3)c2)ccc1OCCN` was 13.4
